test-system: UniProtKB P35414
assay-remarks: potency against CXCR6 with APJ panel – cell-based, beta-arrestin, DiscoveRx, uHTS hits, dose response (AID 624129)
condition-set: CXCR6 beta-arrestin (DiscoveRx) antagonist cell assay, APJ, dose range 1, mean IC50 across replicates
pIC50: −log10 of the molar value.
readout-name: pIC50

compound=Cc1ccc(C(=O)Sc2cccccc2=O)cc1 readout_name=pIC50 relation_symbol== number=5.62
compound=Cn1nc([N+](=O)[O-])nc1Sc1cccc2cccnc12 readout_name=pIC50 relation_symbol== number=4.92
compound=Cc1ccc(-c2oc3ccccc3c(=O)c2O)cc1 readout_name=pIC50 relation_symbol== number=4.83
compound=O=C(Nc1nc(-c2ccccn2)cs1)Nc1ccc(F)cc1F readout_name=pIC50 relation_symbol== number=5.04
compound="COc1ccc(CN2C(=O)C(Cc3ccccc3)Nc3ncnc(N4CCN(c5ccccc5)CC4)c32)cc1 (configuration not stated)" readout_name=pIC50 relation_symbol== number=5.03
compound=CN(c1ccccc1)S(=O)(=O)c1ccc(NC(=O)c2nc(S(C)(=O)=O)ncc2Cl)cc1 readout_name=pIC50 relation_symbol== number=5.11
compound=Cc1ccc2c(Cl)cc(Cl)c(O)c2n1 readout_name=pIC50 relation_symbol== number=5.30
compound=CN(C)c1nc(=NCc2ccco2)ss1 readout_name=pIC50 relation_symbol== number=4.60
compound=FC(F)(F)c1cnc(NNC(=S)Nc2ccc(Cl)cc2)c(Cl)c1 readout_name=pIC50 relation_symbol== number=4.90
compound=O=C(C#Cc1ccccc1)c1ccc([N+](=O)[O-])cc1 readout_name=pIC50 relation_symbol== number=5.34
compound=Cc1ccc(C(=O)/C=C/C(=O)c2ccc(C)cc2)cc1 readout_name=pIC50 relation_symbol=< number=4.10
compound=COc1ccc(-n2c(O)c(/C=N/Nc3nc(C)cc(C)n3)c3ccccc3c2=O)cc1OC readout_name=pIC50 relation_symbol== number=4.30
compound=CCOC(=O)c1c(SCCN2CCCCC2)n(-c2ccccc2)c(=S)n(-c2ccccc2)c1=O readout_name=pIC50 relation_symbol== number=5.17
compound=COC(=O)c1ccc2c(c1)C(C)(C)C(/C=C/c1ccc(OC)c(OC)c1OC)=[N+]2C readout_name=pIC50 relation_symbol== number=4.82
compound="C=C(CN(C)C)C(=O)c1ccc(OC2OC(COC(C)=O)C(OC(C)=O)C(OC(C)=O)C2OC(C)=O)cc1 (configuration not stated)" readout_name=pIC50 relation_symbol== number=4.41
compound=Cc1ccc2oc(/N=C(\N)NC(=O)C(C)(C)C)nc2c1 readout_name=pIC50 relation_symbol== number=4.68
compound=Cc1c(CCCl)c(Cl)n2c(nc3ccccc32)c1C#N readout_name=pIC50 relation_symbol=< number=4.10
compound=O=C(Nc1cccc(C(F)(F)F)c1)Oc1ccc(Cl)c2cccnc12 readout_name=pIC50 relation_symbol== number=6.39
compound=CNc1cc(Cl)c2nonc2c1[N+](=O)[O-] readout_name=pIC50 relation_symbol== number=5.06
compound="Cc1ccc(CN2C(=O)C(Cc3ccccc3)Nc3ncnc(N4CCN(c5ccccc5)CC4)c32)cc1 (configuration not stated)" readout_name=pIC50 relation_symbol== number=5.34
compound=CC(=O)Nc1ccc(NC(=O)c2nc(S(=O)(=O)Cc3cccc(C)c3)ncc2Cl)cc1 readout_name=pIC50 relation_symbol== number=5.05
compound=O=[N+]([O-])c1cc(Cc2ccccc2)cc(C=Nc2ccc(N3CCOCC3)cc2)c1O readout_name=pIC50 relation_symbol== number=4.54

----------
test-system: UniProt O00574
assay-remarks: potency against CXCR6 with APJ panel – cell-based, beta-arrestin, DiscoveRx, uHTS hits, dose response (AID 624129)
condition-set: CXCR6 beta-arrestin (DiscoveRx) antagonist cell assay, CXCR6, dose range 1, mean IC50 across replicates
pIC50: −log10 of the molar value.
// label = fulfilled if pIC50 is not less than 5, otherwise not fulfilled

molecule="CC(Oc1ccc(Br)cc1)C(=O)Nc1nc(-c2ccccn2)cs1 (stereo unspecified)" class_name=fulfilled
molecule=CS(=O)(=O)c1ccc(C(=O)OCc2nnc(-c3ccccc3)o2)cc1[N+](=O)[O-] class_name=fulfilled
molecule=O=C(CSc1cccc2cccnc12)N1CCCC1 class_name=fulfilled
molecule=N#CC(C#N)=C1C=CC=CN1/C(=C\c1ccco1)C(=O)c1ccc(Cl)cc1 class_name="not fulfilled"

----------
Below, each entry is listed with its recorded IC50.
test-system: C-X-C chemokine receptor type 6 (Homo sapiens) (UniProt O00574)
Sequence (O00574 whole entry, looked up): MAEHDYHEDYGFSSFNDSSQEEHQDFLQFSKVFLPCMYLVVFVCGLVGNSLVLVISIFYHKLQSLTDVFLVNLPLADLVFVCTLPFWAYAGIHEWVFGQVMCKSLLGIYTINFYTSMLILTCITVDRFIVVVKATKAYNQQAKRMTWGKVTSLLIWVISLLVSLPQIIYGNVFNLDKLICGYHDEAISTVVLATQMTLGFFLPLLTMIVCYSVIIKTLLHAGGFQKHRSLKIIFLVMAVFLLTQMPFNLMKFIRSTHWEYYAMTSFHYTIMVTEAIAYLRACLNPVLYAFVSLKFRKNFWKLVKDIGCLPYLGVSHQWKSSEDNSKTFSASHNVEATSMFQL
assay-remarks: potency against CXCR6 with APJ panel – cell-based, beta-arrestin, DiscoveRx, uHTS hits, dose response (AID 624129)
condition-set: CXCR6 beta-arrestin (DiscoveRx) antagonist cell assay, CXCR6, run 2, dose range 2
readout-name: IC50 (µM)

molecule=COc1ccccc1C(=O)NNC(=S)NC(=O)c1cccs1 readout_name=IC50 number=10.6
molecule="CN(C)CC1CC/C(=C\\c2ccc(O)cc2)C1=O (stereo unspecified)" readout_name=IC50 number=13.8
molecule="CC(=NO)C1CCC2C3CCC4=CC(=NO)CCC4(C)C3C(O)CC12C (stereo unspecified)" readout_name=IC50 number=45.4
molecule="Cc1ccc2c(c1)C1CN(C)CCC1N2C(=S)NC(=O)c1ccc(Br)cc1 (stereo unspecified)" readout_name=IC50 number=11.2
molecule=Cc1cccc(CSc2cccc3cccnc23)c1 readout_name=IC50 number=3.09
molecule=O=[N+]([O-])/C=C/c1ccc2c(ccn2Cc2ccccc2)c1 readout_name=IC50 number=13.5

----------
Below, each entry is listed with its recorded IC50.
test-system: C-X-C chemokine receptor type 6 (Homo sapiens) (UniProt O00574)
assay-remarks: potency against CXCR6 with APJ panel – cell-based, beta-arrestin, DiscoveRx, uHTS hits, dose response (AID 624129)
condition-set: CXCR6 beta-arrestin (DiscoveRx) antagonist cell assay, CXCR6, run 1, dose range 2
readout-name: IC50 (µM)

molecule=CCCc1cc(=O)oc2cc(OC(=O)CN3C(=O)NC4(CCCC4)C3=O)ccc12 unit_text=µM number=50.5
molecule=Cn1cnc([N+](=O)[O-])c1S(=O)(=O)Oc1ccccc1 unit_text=µM number=16.5
molecule=O=C(CSc1cccc2cccnc12)N/N=C/c1cccnc1 unit_text=µM number=3.34
molecule=O=[N+]([O-])c1c(Nc2ccc(O)cc2)cc(Cl)c2nonc12 unit_text=µM number=3.01
molecule="CC[N+]1(C)CCC(O)(/C=C/c2ccccc2)C(C(=O)/C=C/c2ccccc2)C1 (stereo not drawn)" unit_text=µM number=17.8
molecule=Fc1ccc(NC(=S)Nc2nccs2)cc1 unit_text=µM number=8.52
molecule=Cc1ccc(NC(=O)C2=C(c3ccccc3)S(=O)(=O)CCS2(=O)=O)cc1 unit_text=µM number=16.4
molecule=O=C(Nc1ccc(F)cc1)c1nc(S(=O)(=O)Cc2ccccc2)ncc1Cl unit_text=µM number=12.5
molecule=Cc1ccc(CS(=O)(=O)c2ncc(Cl)c(C(=O)Nc3ccc(OC(F)F)cc3)n2)cc1 unit_text=µM number=12.6
molecule=COc1ccc(C)c(-n2c(=O)n(Cc3ccccc3)c(=O)c3[nH]cnc32)c1 unit_text=µM number=10.9
molecule=Cc1cnc(C(=O)Nc2cccc3cccnc23)cn1 unit_text=µM number=6.94
molecule="O=C1C(Cc2ccccc2)Nc2ncnc(N3CCN(c4ccccc4)CC3)c2N1Cc1ccc(Cl)cc1 (stereo not drawn)" unit_text=µM number=1.77
molecule=COc1ccc(C(=O)N/N=C(\C)c2ccccn2)cc1OC unit_text=µM number=1.65
molecule=Cc1ccc(NC(=S)NNc2ccc(C(=O)O)cc2[N+](=O)[O-])cc1C unit_text=µM number=48.9
molecule=O=[N+]([O-])c1cc(-c2ncccn2)c([N+](=O)[O-])s1 unit_text=µM number=23.8
molecule=O=C(C(=Cc1ccc(F)cc1)C(=O)c1ccccc1)c1ccccc1 unit_text=µM number=11.8
molecule=C=CCSC1=N/C(=C\c2cc(OCC)c(OC(C)=O)c([N+](=O)[O-])c2)C(=O)S1 unit_text=µM number=61
molecule=COc1ccc(-c2csc(Cc3nc(O)cs3)n2)cc1 unit_text=µM number=3.66

----------
test-system: C-C chemokine receptor type 6 (Homo sapiens) (UniProt P51684)
assay-remarks: potency against CXCR6 with APJ panel – cell-based, beta-arrestin, DiscoveRx, uHTS hits, dose response (AID 624129)
condition-set: CXCR6 beta-arrestin (DiscoveRx) antagonist cell assay, CCR6, dose range 1, mean IC50 across replicates
readout-name: IC50 (µM)

compound_smiles=Cc1nnc(Sc2cc(NCCCO)c([N+](=O)[O-])c3nonc23)s1 test_system="C-C chemokine receptor type 6 (Homo sapiens) (UniProt P51684)" relation_symbol== number=8.16
compound_smiles=CCCC(=O)OCCNc1cc(Sc2nc3ccccc3[nH]2)c2nonc2c1[N+](=O)[O-] test_system="C-C chemokine receptor type 6 (Homo sapiens) (UniProt P51684)" relation_symbol== number=5.55
compound_smiles=CNC(=O)c1nnsc1S(=O)(=O)c1ccc(Cl)cc1 test_system="C-C chemokine receptor type 6 (Homo sapiens) (UniProt P51684)" relation_symbol== number=12
compound_smiles=N#Cc1c(C#N)c(SSc2c(C#N)c(C#N)c(N)n2-c2ccccc2)n(-c2ccccc2)c1N test_system="C-C chemokine receptor type 6 (Homo sapiens) (UniProt P51684)" relation_symbol=> number=80
compound_smiles=O=c1oc2ccccc2c(Cl)c1CN1CCCCC1 test_system="C-C chemokine receptor type 6 (Homo sapiens) (UniProt P51684)" relation_symbol== number=6.07
compound_smiles=Cc1cccc(C(=O)Nc2ccc(C(=O)/C=C/c3cccnc3)cc2)c1 test_system="C-C chemokine receptor type 6 (Homo sapiens) (UniProt P51684)" relation_symbol== number=5.73
compound_smiles=O=C1C=CC(=O)N1c1ccccc1N1C(=O)C=CC1=O test_system="C-C chemokine receptor type 6 (Homo sapiens) (UniProt P51684)" relation_symbol=> number=80
compound_smiles=CC(=O)OCCCNc1cc(Sc2ccc(Cl)cc2)c2nonc2c1[N+](=O)[O-] test_system="C-C chemokine receptor type 6 (Homo sapiens) (UniProt P51684)" relation_symbol== number=2.12
compound_smiles=COc1cc(/C=C/c2ccc3cccc(O)c3n2)ccc1O test_system="C-C chemokine receptor type 6 (Homo sapiens) (UniProt P51684)" relation_symbol== number=12.9
compound_smiles=O=S(=O)(/C=C/C=C/S(=O)(=O)c1ccccc1)c1ccccc1 test_system="C-C chemokine receptor type 6 (Homo sapiens) (UniProt P51684)" relation_symbol== number=7.41
compound_smiles=COc1ccc([N+](=O)[O-])c(S(=O)(=O)c2ccccc2)n1 test_system="C-C chemokine receptor type 6 (Homo sapiens) (UniProt P51684)" relation_symbol== number=19.5
